# experimental system: Mitogen-activated protein kinase 9 (Homo sapiens) (UniProt P45984);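 further: reported figure is the mean inhibition of JNK2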
# Sequence (P45984 whole entry, looked up): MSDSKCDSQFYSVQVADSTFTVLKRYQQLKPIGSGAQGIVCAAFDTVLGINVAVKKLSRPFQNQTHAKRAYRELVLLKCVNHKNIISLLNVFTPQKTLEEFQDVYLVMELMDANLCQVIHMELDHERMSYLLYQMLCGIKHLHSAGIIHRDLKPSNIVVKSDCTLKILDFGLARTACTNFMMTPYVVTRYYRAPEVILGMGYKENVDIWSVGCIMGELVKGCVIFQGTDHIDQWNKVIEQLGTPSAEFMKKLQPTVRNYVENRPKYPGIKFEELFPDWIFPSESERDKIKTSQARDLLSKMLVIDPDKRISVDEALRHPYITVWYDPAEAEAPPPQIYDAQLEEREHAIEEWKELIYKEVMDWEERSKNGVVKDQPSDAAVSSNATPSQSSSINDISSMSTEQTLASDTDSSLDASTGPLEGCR
# run conditions: at 1 µM
Known inhibition of a selection of molecules

{"columns": ["molecule", "inhibition"],
 "data": [
  ["Fc1ccc(-c2c(-c3ccncc3)nc3n2CCS3)cc1", "4.26%"],
  ["CCS(=O)(=O)c1ccc(OC)c(Nc2ncc(-c3ccccc3Cl)o2)c1", "1.23%"],
  ["COc1cc2ncn(-c3cc(OCCc4ccccc4)c(C(N)=O)s3)c2cc1OC", "3.52%"],
  ["CS(=O)(=O)CCNCc1cc(-c2cc3c(Nc4ccc(OCc5cccc(F)c5)c(Cl)c4)ncnc3s2)cs1", "7.13%"],
  ["O=C(Nc1n[nH]c2cc(-c3ccccc3)ccc12)C1CC1", "7.19%"],
  ["Cc1ccc(NC(=O)c2ccoc2)cc1-c1ccc(C(=O)NCC2CC2)cc1", "2.57%"],
  ["CN(C)CCOc1ccc(-c2cc(-c3ccc4c(c3)CCC4=NO)c(-c3ccncc3)o2)cc1", "3.02%"],
  ["Nc1nccc(-c2c(-c3ccc(F)cc3)ncn2C2CCC(O)CC2)n1 (stereo not given)", "53.3%"],
  ["O=C(Nc1ccc(Oc2ccc3[nH]c(NC(=O)c4ccccc4)nc3c2)cc1)Nc1cc(C(F)(F)F)ccc1F", "6.62%"],
  ["Cc1ccc(C(=O)NC2CCC2)cc1-c1ccc(C(=O)NCC2CC2)cc1", "3.35%"]
]}
